- TARGET SYSTEM: C-CaM (C-lobe of CaM, 74-aa construct) (Homo sapiens)
- Construct: partial CaMs: N-CaM(1–74), C-CaM(75–148); His tag; made in house; host or cells: bacteria (E. coli)
- ASSAY TEXT: Isothermal titration calorimetry with C-lobe of CaM
- MEASUREMENT PARAMETERS: ITC, one-set-of-sites fit, 25 °C, 10 mM HEPES pH 7.0, 0.1 mM CaCl2, mean of n = 3 (Fig. 6A), read-out: Binding affinity (Ka)
No end group written: not given here.
EXPERIMENTAL ENDPOINT: pKd
Just the number, please; pKd means minus log10 of the concentration in mol/L.

I am curious: what pKd value has been reported for YEELLKYVGHIFRKVKRRSLRLYARW [Cav3.2] ?
6.16
